# test: Stability of linkers L1-L4 conjugated to FGF21 (LC-MS)
# Type: physicochemical
# cond: +4° C., 168 hrs

| molecule | +(2) H2O, % |
| --- | --- |
| L2-FGF21ΔH-A129C: Linker-2 conjugated to FGF21ΔH-A129C protein (Table 4; Table 5 row L2) (conjugate, UniProt Q9NSA1 29-209, looked up, variant H1* A129C, Linker-2 attached) Fibroblast growth factor 21: PIPDSSPLLQFGGQVRQRYLYTDDAQQTEAHLEIREDGTVGGAADQSPESLLQLKALKPGVIQILGVKTSRFLCQRPDGALYGSLHFDPEACSFRELLLEDGYNVYQSEAHGLPLHLPGNKSPHRDPCPRGPARFLPLPGLPPALPEPPGILAPQPPDVGSSDPLSMVGPSQGRSPSYAS | 7 |
